Please go through the items and note down their T/C.
tested on: L1210 leukemia ip in BDF1 mice, survival T/C; experiment: NCI In Vivo Anticancer Drug Screen. Data for tumor model L1210 Leukemia (intraperitoneal) in B6D2F1 (BDF1) mice; conditions: endpoint: mean survival time; dose: 50.0 mg/kg/injection; schedule: Q01DX009 (ip); vehicle: saline with Tween-80; higher = longer survival
Toxic doses and inconclusive results are not listed.

[in] Give the reported T/C for `CC1(C)N=C(N)N=C(N)N1c1ccc(Cl)c(C(F)(F)F)c1` (system: L1210 leukemia ip in BDF1 mice, survival T/C).
[out] 98 % of control

[in] Give the reported T/C for O=C(O)C(O)C(O)C(O)CO.[Zn+2] (stereo not given) (system: L1210 leukemia ip in BDF1 mice, survival T/C).
[out] 91 % of control

[in] Give the reported T/C for CCCCCCCCCCCCCCCC(=O)OC(C)COC (stereo not given) (system: L1210 leukemia ip in BDF1 mice, survival T/C).
[out] 108 % of control

[in] Give the reported T/C for `CCCCN(CCCC)CCCCO` (system: L1210 leukemia ip in BDF1 mice, survival T/C).
[out] 116 % of control

[in] Give the reported T/C for O=[N+]([O-])c1ccc(N/N=C2\C3CC(c4ccccc4)C2C(c2ccccc2)=C3c2ccccc2)c([N+](=O)[O-])c1 (stereo not given) (system: L1210 leukemia ip in BDF1 mice, survival T/C).
[out] 96 % of control
